# tested-target: T1, CD226 (human) (UniProt Q15762)
# T1 sequence: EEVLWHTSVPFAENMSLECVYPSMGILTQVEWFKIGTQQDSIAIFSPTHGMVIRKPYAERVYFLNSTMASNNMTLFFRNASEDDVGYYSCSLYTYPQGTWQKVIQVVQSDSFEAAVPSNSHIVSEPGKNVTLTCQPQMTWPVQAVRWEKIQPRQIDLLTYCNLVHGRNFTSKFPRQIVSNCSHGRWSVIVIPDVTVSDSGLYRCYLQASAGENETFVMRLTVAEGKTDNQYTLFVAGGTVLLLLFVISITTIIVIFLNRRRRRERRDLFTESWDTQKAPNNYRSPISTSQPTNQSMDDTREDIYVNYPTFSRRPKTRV
# protocol-text: flow cytometry, CD226-expressing cells
Parameter: MFI at 11.1 nM. Scope: all listed entries.

# binder, MFI at 11.1 nM
rows = [
    ("CD155 variant IgV-Fc P18T, M36T, S65A, S67E, L79Q, A81T, F91S, G111R (Fc fusion, not shown: a dimerising Fc or GST; small tags and cut ends) PGTGDVVVQAPTQVTGFLGDSVTLPCYLQVPNTEVTHVSQLTWARHGESGSMAVFHQTQGPAYEESKRLEFVAARQGTELRNASLRMSGLRVEDEGNYTCLFVTFPQRSRSVDIWL", "1130 MFI"),
    ("CD155 variant IgV-Fc V9L, P18S, Q60R, V75L, L79P, R89K, F91S, L104E, G111R (Fc fusion, not shown: a dimerising Fc or GST; small tags and cut ends) PGTGDLVVQAPTQVSGFLGDSVTLPCYLQVPNMEVTHVSQLTWARHGESGSMAVFHRTQGPSYSESKRLEFLAARPGAELRNASLKMSGLRVEDEGNYTCEFVTFPQRSRSVDIWL", "986 MFI"),
    ("CD155 variant IgV-Fc P18C, T26M, L44V, M55I, Q62K, L79P, F91S, L104M, T107M (Fc fusion, not shown: a dimerising Fc or GST; small tags and cut ends) WPPPGTGDVVVQAPTQVCGFLGDSVMLPCYLQVPNMEVTHVSQVTWARHGESGSIAVFHQTKGPSYSESKRLEFVAARPGAELRNASLRMSGLRVEDEGNYTCMFVMFPQGSRSVDIWL", "973 MFI"),
    ("CD155 variant IgV-Fc V9I, P18T, D23G, L79P, F91S, G111R (Fc fusion, not shown: a dimerising Fc or GST; small tags and cut ends) WPPPGTGDIVVQAPTQVTGFLGGSVTLPCYLQVPNMEVTHVSQLTWARHGESGSMAVFHQTQGPSYSESKRLEFVAARPGAELRNASLRMSGLRVEDEGNYTCLFVTFPQRSRSVDIWL", "897 MFI"),
]
